Biological target: ~100 representative kinases (Homo sapiens)
Construct: Recombinant protein kinase domains with a concentration of 2 μM
Sequence (P51813 1-675): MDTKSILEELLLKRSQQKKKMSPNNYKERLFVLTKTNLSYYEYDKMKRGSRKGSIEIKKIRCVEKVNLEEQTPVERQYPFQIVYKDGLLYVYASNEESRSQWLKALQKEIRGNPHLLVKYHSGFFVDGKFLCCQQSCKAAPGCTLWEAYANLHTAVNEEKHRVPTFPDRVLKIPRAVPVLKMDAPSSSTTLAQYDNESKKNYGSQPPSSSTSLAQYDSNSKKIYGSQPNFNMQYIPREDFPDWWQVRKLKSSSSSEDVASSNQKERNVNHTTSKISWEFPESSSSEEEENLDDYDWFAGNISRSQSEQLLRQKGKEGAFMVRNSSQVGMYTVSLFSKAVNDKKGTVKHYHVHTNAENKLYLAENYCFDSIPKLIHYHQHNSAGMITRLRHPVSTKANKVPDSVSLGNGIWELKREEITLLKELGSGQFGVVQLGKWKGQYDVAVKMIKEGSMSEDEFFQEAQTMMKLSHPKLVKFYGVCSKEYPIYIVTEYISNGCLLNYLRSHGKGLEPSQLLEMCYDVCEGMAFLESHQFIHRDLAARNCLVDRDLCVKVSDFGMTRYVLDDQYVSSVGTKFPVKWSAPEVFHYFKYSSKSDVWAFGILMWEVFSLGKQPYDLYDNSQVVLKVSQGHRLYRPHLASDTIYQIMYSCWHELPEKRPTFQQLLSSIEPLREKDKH
Assay: DSF 100 kinase selectivity screen;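 note: compound tested at 20 µM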
Type: binding
Conditions: Protein BMX; average of three replicates
outcome-measure: dTm (K)

Guide cases for dTm, answers given:
COc1cc2c(Oc3ccc(NC(=O)C4(C(=O)Nc5ccc(F)cc5)CC4)cc3F)ccnc2cc1OCCCN1CCOCC1 [Foretinib, reference compound]	6.77
O=C(Nc1cccc(-c2c[nH]c3ncnc(N4CCOCC4)c23)c1)c1cccn(-c2ccc(F)cc2)c1=O	1.71
O=C(Nc1cccc(-c2c[nH]c3ncnc(N4CCOCC4)c23)c1)C1(C(=O)Nc2ccc(F)c(Br)c2)CC1	0.24
COc1cc(NC(=O)C2(C(=O)Nc3cccc(-c4c[nH]c5ncnc(N6CCOCC6)c45)c3)CC2)ccc1F	0.38
O=C(Nc1ccc(Cl)cc1)C1(C(=O)Nc2cccc(-c3c[nH]c4ncnc(N5CCOCC5)c34)c2)CC1	0.67
Cc1ccc(C(=O)Nc2ccc(CN3CCN(C)CC3)c(C(F)(F)F)c2)cc1C#Cc1c[nH]c2ncnc(N3CCOCC3)c12	1.60
C[C@@H]1CN(c2cc(-c3n[nH]c4ccc(OC5(C)CC5)cc34)ncn2)C[C@H](C)O1	-2.53
CC(C)(C)c1cc(NC(=O)Nc2cccc(-c3c[nH]c4ncnc(N5CCOCC5)c34)c2)n(-c2ccc3ncccc3c2)n1	2.95
CNC(=O)c1cc(Oc2ccc(NC(=O)Nc3cc(C(C)(C)C)nn3-c3ccc4ncccc4c3)c(F)c2)ccn1 [Rebastinib, reference compound]	7.16

(1) COc1ccc(NC(=O)C2(C(=O)Nc3cccc(-c4c[nH]c5ncnc(N6CCOCC6)c45)c3)CC2)cc1
(2) Cc1ccc(-n2nc(C(C)(C)C)cc2NC(=O)Nc2cccc(-c3c[nH]c4ncnc(N5CCOCC5)c34)c2)cc1
(3) CCNc1nc(Nc2cc(F)c(C(=O)N3CCOCC3)cc2OC)ncc1C(F)(F)F
(4) O=C(Nc1cccc(-c2c[nH]c3ncnc(N4CCOCC4)c23)c1)C1(C(=O)Nc2ccc(F)c(Cl)c2)CC1
(5) Cc1ccc(-n2nc(C(C)(C)C)cc2NC(=O)Nc2cccc(-c3c[nH]c4nc(Cl)nc(N5CCOCC5)c34)c2)cc1
Order each entry by recorded dTm, climbing from the minimum. Submit the labels in the order that the ranking request calls for.
5, 1, 3, 4, 2
(5: -1.99 K, 1: -0.18 K, 3: -0.0422 K, 4: 1.13 K, 2: 2.21 K)
